biological target: IDO (Homo sapiens, UniProt P14902); assay: LLE_IDO_ABS_DR (IDO assay)
Sequence (P14902 whole entry): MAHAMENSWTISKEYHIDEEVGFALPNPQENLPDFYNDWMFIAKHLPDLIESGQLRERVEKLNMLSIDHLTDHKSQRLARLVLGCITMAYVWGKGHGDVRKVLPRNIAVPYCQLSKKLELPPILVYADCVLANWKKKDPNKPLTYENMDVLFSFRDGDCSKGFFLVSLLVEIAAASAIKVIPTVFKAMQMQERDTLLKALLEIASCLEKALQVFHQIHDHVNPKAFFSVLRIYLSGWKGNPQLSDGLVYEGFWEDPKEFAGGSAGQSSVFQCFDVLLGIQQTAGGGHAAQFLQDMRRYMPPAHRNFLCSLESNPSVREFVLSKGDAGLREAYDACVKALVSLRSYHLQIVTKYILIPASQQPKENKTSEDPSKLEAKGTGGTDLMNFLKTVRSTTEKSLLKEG
endpoint.name: IC50 (nM)
A number alone suffices; assume nM.

Q) May I ask what IC50 has been recorded for C#Cc1ccccc1NC(=O)Nc1cc(-c2ccccc2-c2nnn[nH]2)ccc1N(CC(C)C)CC(C)C [Example 277] ?
A) 160

Q) Need IC50, item Cc1ccc(NC(=O)Nc2cc(-c3ccoc3C(=O)O)ccc2N(CC(C)C)CC(C)C)cc1 [Example 152]
A) 770

Q) Look at this molecule and give its reported IC50. Cc1ccccc1NC(=O)Nc1cc(-c2cccc(F)c2C(=O)O)ccc1N(CC(C)C)CC(C)C [Example 69]
A) 890

Q) What value of IC50 has been reported for the following molecule? Cc1ccc(NC(=O)Nc2cc(-c3ccccc3C(=O)O)ccc2N(CCC(C)C(F)(F)F)C2CCCCC2)cc1 (stereo not shown) [Example 188]
A) 290

Q) Look at this molecule and give its reported IC50. Cc1ccc(NC(=O)Nc2cc(-c3ccccc3-c3nnn[nH]3)ccc2N(CC(C)C)CC(C)C)cc1 [Example 1]
A) 3.45

Q) Name the reported IC50 value associated with the molecule O=C(Nc1ccc(OC(F)(F)F)cc1)Nc1cc(-c2ccccc2-c2nnn[nH]2)ccc1N(CCC(F)(F)F)Cc1ccc(F)cc1C(F)(F)F [Example 339]
A) 160

Q) Given the entry CC(C)CN(CC(C)C)c1ccc(-c2ccccc2-c2nnn[nH]2)cc1NC(=O)Nc1ccc(F)c(Br)c1 [Example 258] , report its measured IC50.
A) 90

* * *

Measured pIC50 of individual entries
biological target: IDO (Homo sapiens); assay: LLE_IDO_ABS_DR (IDO assay)
FYI, pIC50 means -log10 of a concentration in mol per litre.

molecule: CC(C)CN(c1cc(F)c(-c2ccccc2C(=O)O)cc1NC(=O)Nc1ccccc1F)C1CCCCC1
system.tested: IDO (Homo sapiens)
endpoint.name: pIC50
numeric.readout: 8.76

Q) Look up pIC50 for this compound: Cc1ccc(NC(=O)Nc2cc(-c3ccccc3-c3nnn[nH]3)c(F)cc2N(CC(F)F)CC2CC2)cc1
A) 6.38

Q) I'd like to know its pIC50. The compound in question is Cc1ccc(NC(=O)Nc2cc(-c3ccccc3C(=O)O)ccc2Nc2ccccc2C(C)(C)C)cc1
A) 6.22

* * *

target: IDO (Homo sapiens); test: LLE_IDO_ABS_DR (IDO assay)
Lab note: compare IC50 with 0.05 µM, writing T if less and F if equal or more.

Q) Does Cc1ccc(NC(=O)Nc2cc(-c3ccccc3-c3nnn[nH]3)ccc2N(CCC(F)(F)F)Cc2ccc(C(F)(F)F)cc2)cc1 have IC50 strictly under 0.05 µM?
A) T

Q) Given O=C(Nc1ccc(OC(F)(F)F)cc1)Nc1cc(-c2ccccc2-c2nnn[nH]2)ccc1N(CCCC(F)(F)F)Cc1ccc(Cl)cc1 , is recorded IC50 strictly lower than 0.05 µM?
A) F

Q) Dear reviewer, please state whether CC(C)CN(CC(C)C)c1ccc(-c2ccccc2-c2nnn[nH]2)cc1NC(=O)Nc1ccc(-c2cnco2)cc1 has IC50 strictly beneath 0.05 µM.
A) T

Q) IC50 strictly < 0.05 µM for this molecule? Cc1ccc(NC(=O)Nc2cc(-c3cc(F)ccc3C(=O)O)ccc2N(CC(C)C)C2CCCC2)cc1
A) T

Q) # strict comparison: is reported IC50 < 0.05 µM? input = Cc1ccc(NC(=O)Nc2cc(-c3ccccc3C(=O)O)ccc2N(C)C2CCCCCC2)cc1
A) T

Q) Identify whether the molecule Cc1ccc(NC(=O)Nc2cc(-c3ccccc3-c3nnn[nH]3)ccc2N(CC(C)C)CC2CCC2)cc1 records IC50 below 0.05 µM.
A) T

Q) hey, is IC50 for Cc1ccc(NC(=O)Nc2cc(-c3ccccc3C(=O)O)ccc2NC2CCCCC2)cc1 lower than 0.05 µM or not?
A) F
